Entries and their measured IC50 follow.
molecular target: recombinant SARS-CoV-2 M^pro (Severe acute respiratory syndrome coronavirus 2 (2019-nCoV) (SARS-CoV-2), UniProt P0DTD1); assay: Inhibition of SARS-CoV-2 M^pro enzyme activity (fluorescent substrate assay); assay type: biochemical; conditions: inhibition of SARS-CoV-2 M^pro enzyme activity; values in nM; read-out: IC50
State the answer as a number, implicitly in nM.

COMPOUND | UNIT | RECORDED NUMBER
C[C@@H](NC(=O)COc1ccccc1)C(=O)N[C@H](Cc1ccccc1)C(=O)C(=O)NCc1ccccn1 | nM | 11.8
COc1ccc(OC(F)(F)F)cc1C(=O)NC(C)(C)C(=O)N[C@H](Cc1ccccc1)C(=O)C(=O)NCc1ccccn1 | nM | 21.9
C[C@@H](NC(=O)C1CCC(F)(F)CC1)C(=O)N[C@H](CC1CCCCC1)C(=O)C(=O)NCc1ccccn1 | nM | 23.1

Next:
# IC50 lookup, item O=C(NCc1ccccn1)C(=O)[C@@H](Cc1ccccc1)NC(=O)C1[C@H]2CCC[C@H]2CN1C(=O)c1cc2cc(Cl)ccc2o1 (stereo partly shown)
20.5

====

target: recombinant SARS-CoV-2 M^pro (Severe acute respiratory syndrome coronavirus 2 (2019-nCoV) (SARS-CoV-2)); experiment: Inhibition of SARS-CoV-2 M^pro enzyme activity (fluorescent substrate assay); type: biochemical; settings: inhibition of SARS-CoV-2 M^pro enzyme activity; values in nM; read-out: IC50
QUANTITY: IC50 (nM)
Write the value in nM as a bare number.

GET /values?readout=IC50&item= C[C@@H](NC(=O)N1CC2(C1)CC(F)(F)C2)C(=O)N[C@H](Cc1ccccc1)C(=O)C(=O)NCc1ccccn1 [Compound 298]
14.9

Follow-up entry: O=C(NCc1nccs1)C(=O)[C@@H](Cc1ccccc1)NC(=O)[C@H]1COCCN1C(=O)C1CCC(F)(F)CC1 [Compound 407]
21.4

Same read-out for C[C@@H](NC(=O)c1cccc(OC(F)(F)F)c1)C(=O)N[C@H](Cc1ccccc1)C(=O)C(=O)NCc1ccccn1 [Compound 143] ?
16.4

Next compound up: O=C(NCc1ccccn1)C(=O)[C@@H](Cc1ccccc1)NC(=O)[C@H](NC(=O)c1ccc(F)cc1)C1CC1 [Compound 250]
42.4

Now try O=C(NCc1nccs1)C(=O)[C@@H](Cc1ccccc1)NC(=O)[C@H]1COCCN1C(=O)C1CCCC(F)(F)C1 (some centres unmarked) [Compound 410] .
25.3

Param item: C[C@@H](NC(=O)CC1CCC(F)(F)CC1)C(=O)N[C@H](Cc1ccccc1)C(=O)C(=O)NCc1nccs1 [Compound 373]
16

Entry to check: C[C@@H](OCc1ccccc1)C(=O)N[C@H](Cc1ccccc1)C(=O)C(=O)NCc1ccccn1 [Compound 1]
14.6

For C[C@@H](NC(=O)COC(F)(F)F)C(=O)N[C@H](Cc1ccccc1)C(=O)C(=O)NCc1ccccn1 [Compound 80] then?
58.6

And for O=C(CNC(=O)c1cnccn1)N[C@H](Cc1ccccc1)C(=O)C(=O)NCc1ccccn1 [Compound 154] ?
193

What do you have for CC(Oc1ccc(Cl)cc1Cl)C(=O)N[C@H](C)C(=O)N[C@H](Cc1ccccc1)C(=O)C(=O)NCc1ccccn1 (some centres unmarked) [Compound 88] ?
24.4

Please give the result for O=C(NCc1nccs1)C(=O)[C@@H](Cc1ccccc1)NC(=O)[C@H]1COCCN1C(=O)C1CCC(F)(F)C1 (some centres unmarked) [Compound 409] too.
36.6

Next up: COC(=O)C[C@@H](NC(=O)CC1CC(F)(F)C1)C(=O)N[C@H](Cc1ccccc1)C(=O)C(=O)NCc1nccs1 [Compound 574]
14.4

How about O=C(CC1CCOCC1)NC1(C(=O)N[C@H](Cc2ccccc2)C(=O)C(=O)NCc2ccccn2)CCC1 [Compound 210] ?
20.7

Try C[C@@H](NC(=O)C1CCC(F)(F)C1)C(=O)N[C@H](Cc1ccccc1)C(=O)C(=O)NCc1ccccn1 (some centres unmarked) [Compound 121] next.
50.7

====

# key: entry, value: AUC(0-inf)
assay: in vivo; settings: male, Sprague-Dawley, rat, po, 10 mg/kg

COMPOUND | AUC(0-inf)
O=C(CNC(=O)C1CCC(F)(F)CC1)N[C@H](Cc1ccccc1)C(=O)C(=O)NCc1ccccn1 | 12400 ng·h/mL
O=C(CC1CCC(F)(F)CC1)NCC(=O)N[C@H](Cc1ccccc1)C(=O)C(=O)NCc1ccccn1 | 12900 ng·h/mL
C[C@@H](NC(=O)CC1CC1(F)F)C(=O)N[C@H](Cc1ccccc1)C(=O)C(=O)NCc1cscn1 (stereo partly shown) | 5070 ng·h/mL

Below: the item to evaluate.
What AUC(0-inf) value was documented for this compound, O=C(CNC(=O)C1CC12CCC(F)(F)CC2)N[C@H](Cc1ccccc1)C(=O)C(=O)NCc1ccccn1 (stereo partly shown) ?
22400 ng·h/mL

====

assay: in vivo; conditions: male, Sprague-Dawley, rat, po, 10 mg/kg
QUANTITY: MRT inf (h)
Please state the figure in h; there is no need to write the unit.

MOLECULE | MRT inf, h
COC[C@@H](NC(=O)CC1CC(F)(F)C1)C(=O)N[C@H](Cc1ccccc1)C(=O)C(=O)NCc1nccs1 | 6.47

# input for lookup
Could you share which MRT inf value was measured for COC[C@@H](NC(=O)C1CCCC(F)(F)C1)C(=O)N[C@H](Cc1ccccc1)C(=O)C(=O)NCc1nccs1 (stereo partly shown) ?
6.6

====

target: recombinant SARS-CoV-2 M^pro (Severe acute respiratory syndrome coronavirus 2 (2019-nCoV) (SARS-CoV-2), UniProt P0DTD1); test: Inhibition of SARS-CoV-2 M^pro enzyme activity (fluorescent substrate assay); format: biochemical; details: inhibition of SARS-CoV-2 M^pro enzyme activity; values given in μM; read-out: IC50
hey, just use class 1 if measured IC50 is less than 2 µM, otherwise class 0

Some solved cases for reference:
COMPOUND | CLASS NAME
CN(C(=O)C1CCC(F)(F)CC1)C1(C(=O)N[C@H](Cc2ccccc2)C(=O)C(=O)NCc2ccccn2)CC1 [Compound 167] | class 0
Cc1nc(CNC(=O)C(=O)[C@@H](Cc2ccccc2)NC(=O)[C@@H](C)NC(=O)C2CCC(F)(F)CC2)cs1 [Compound 351] | class 1
O=C(NCc1nccs1)C(=O)[C@@H](Cc1ccccc1)NC(=O)c1ccccc1 [Compound 454] | class 1

Criterion: IC50 strictly below 2 µM. Is it met by O=C(NCc1cocn1)C(=O)[C@@H](Cc1ccccc1)NC(=O)c1ccccc1 [Compound 458] ?
class 0

Field entry: O=C(CNC(=O)c1ccccc1)N[C@H](Cc1ccccc1)C(=O)C(=O)NCc1nccs1 [Compound 477]
class 1

Subsequent entry: O=C(NCc1ccccn1)C(=O)[C@@H](Cc1ccccc1)NC(=O)[C@@H]1C[C@@H]2CCC[C@@H]2N1C(=O)C1CCC(F)(F)CC1 [Compound 263]
class 1

====

In this section, each of the molecules is paired with its reported MRT inf.
experiment: in vivo; details: male, Sprague-Dawley, rat, iv, 1 mg/kg
# number only, unit h dropped from output

MOLECULE | UNIT | MRT inf
C[C@@H](NC(=O)C1CCC(F)(F)CC1)C(=O)N[C@H](Cc1ccccc1)C(=O)C(=O)NCc1nccs1 [Compound 354] | h | 0.93
O=C(CC1CCC(F)(F)CC1)NCC(=O)N[C@H](Cc1ccccc1)C(=O)C(=O)NCc1ccccn1 [Compound 150] | h | 3.94

# lookup: MRT inf of C[C@@H](NC(=O)N1CCC(F)(F)CC1)C(=O)N[C@H](Cc1ccccc1)C(=O)C(=O)NCc1ccccn1 [Compound 296]
1.17

====

IC50 reference
molecular target: recombinant SARS-CoV-2 M^pro (Severe acute respiratory syndrome coronavirus 2 (2019-nCoV) (SARS-CoV-2)); assay: Inhibition of SARS-CoV-2 M^pro enzyme activity (fluorescent substrate assay); type: biochemical; conditions: inhibition of SARS-CoV-2 M^pro enzyme activity; values in nM; read-out: IC50
State just the number; it will be interpreted in nM.

MOLECULE | IC50 (nM)
CC(C)(NC(=O)N1CCC(F)(F)CC1)C(=O)N[C@H](Cc1ccccc1)C(=O)C(=O)NCc1ccccn1 [Compound 302] | 41.5
O=C(Cn1cc(-c2ccccc2F)nn1)N[C@H](Cc1ccccc1)C(=O)C(=O)NCc1nccs1 [Compound 532] | 625
O=C(NCc1ccccn1)C(=O)[C@@H](Cc1ccccc1)NC(=O)[C@H]1CC2CCCCC2N1C(=O)NCC1CC(F)(F)C1 (stereo partly shown) [Compound 308] | 13.9

Data request, read-out IC50, for C[C@@H](NC(=O)C1CCC(F)(F)CC1)C(=O)N[C@H](Cc1ccccc1)C(=O)C(=O)NCc1cscn1 [Compound 357]
22.3

And what about the molecule O=C(NCc1ccccn1)C(=O)[C@@H](Cc1ccccc1)NC(=O)[C@H]1COCCN1C(=O)C1CCC(F)(F)CC1 [Compound 288] ?
14.6

Further, for C[C@H](NC(=O)C1CCC(F)(F)CC1)C(=O)N[C@H](Cc1ccccc1)C(=O)C(=O)NCc1ccccn1 [Compound 452] ?
66.2

Now consider C[C@@H](OCc1ccc(F)cc1)C(=O)N[C@H](Cc1ccccc1)C(=O)C(=O)NCc1ccccn1 [Compound 9] .
12.1
